# target-or-test-system: ATP-dependent translocase ABCB1 (Homo sapiens, UniProt P08183)
# Sequence (P08183 whole entry): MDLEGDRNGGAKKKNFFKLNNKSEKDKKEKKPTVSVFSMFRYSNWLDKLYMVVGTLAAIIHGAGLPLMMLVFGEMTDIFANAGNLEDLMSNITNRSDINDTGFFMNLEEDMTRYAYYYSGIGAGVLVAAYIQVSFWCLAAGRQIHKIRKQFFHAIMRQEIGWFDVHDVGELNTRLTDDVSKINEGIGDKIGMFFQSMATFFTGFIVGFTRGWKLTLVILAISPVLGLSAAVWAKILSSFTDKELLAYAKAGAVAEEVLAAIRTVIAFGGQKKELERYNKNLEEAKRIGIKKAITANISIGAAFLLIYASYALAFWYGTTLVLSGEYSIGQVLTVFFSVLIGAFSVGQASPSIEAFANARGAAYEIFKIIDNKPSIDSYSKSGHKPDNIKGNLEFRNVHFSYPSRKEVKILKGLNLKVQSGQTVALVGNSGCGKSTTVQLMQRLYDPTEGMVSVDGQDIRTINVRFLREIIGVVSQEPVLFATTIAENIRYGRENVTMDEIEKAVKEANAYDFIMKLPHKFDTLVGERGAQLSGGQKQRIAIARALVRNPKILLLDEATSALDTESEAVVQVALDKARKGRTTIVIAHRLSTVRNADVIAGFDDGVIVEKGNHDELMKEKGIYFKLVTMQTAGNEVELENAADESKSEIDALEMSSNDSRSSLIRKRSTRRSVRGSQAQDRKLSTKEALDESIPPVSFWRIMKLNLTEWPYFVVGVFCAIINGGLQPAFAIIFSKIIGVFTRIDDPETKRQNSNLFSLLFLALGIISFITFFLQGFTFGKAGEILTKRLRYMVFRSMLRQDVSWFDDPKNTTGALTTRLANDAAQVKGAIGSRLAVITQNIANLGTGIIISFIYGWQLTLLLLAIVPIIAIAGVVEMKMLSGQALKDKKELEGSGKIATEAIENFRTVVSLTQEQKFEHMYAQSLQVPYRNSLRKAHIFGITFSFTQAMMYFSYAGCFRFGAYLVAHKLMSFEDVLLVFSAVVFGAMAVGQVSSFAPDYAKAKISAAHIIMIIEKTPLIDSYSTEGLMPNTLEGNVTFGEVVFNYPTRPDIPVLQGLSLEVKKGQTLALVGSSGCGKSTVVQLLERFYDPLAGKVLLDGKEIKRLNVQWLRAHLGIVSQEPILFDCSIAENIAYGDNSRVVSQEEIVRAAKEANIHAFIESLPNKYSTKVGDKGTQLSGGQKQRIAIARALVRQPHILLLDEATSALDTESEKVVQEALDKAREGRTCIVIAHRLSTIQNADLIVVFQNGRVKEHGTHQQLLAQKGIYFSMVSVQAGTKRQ
# procedure-details: Inhibition of human ABCB1 expressed in mouse L5178 cells assessed as 50% inhibition of cell proliferation at compound-doxorubicin ratio of 40.8:1 after 48 hrs by MTT assay
# Format: cell-based
# experimental-setup: l5178, 48 h
Please mark True if the recorded fractional inhibitory concentration index (FICI) is equal to or greater than 1, and False if it falls below.

## Task fractional inhibitory concentration index (FICI) >= 1 for C[C@]12C[C@H](O)[C@H](O)C[C@H]1C(=O)C=C1[C@@H]2CC[C@]2(C)C(=O)CC[C@@]12O [RUBROSTERONE] ?
## Result True

## Task fractional inhibitory concentration index (FICI) >= 1 for CC(C)(O)CC[C@@H](OC(=O)c1ccccc1)[C@](C)(O)[C@H]1CC[C@@]2(O)C3=CC(=O)[C@@H]4C[C@@H](O)[C@@H](O)C[C@]4(C)[C@H]3CC[C@]12C ?
## Result False

## Task fractional inhibitory concentration index (FICI) >= 1 for C=C(CCCC(C)(C)O)[C@H]1CC[C@@]2(O)C3=CC(=O)[C@@H]4C[C@@H](O)[C@@H](O)C[C@]4(C)[C@H]3CC[C@]12C ?
## Result True

## Task fractional inhibitory concentration index (FICI) >= 1 for CCC1C[C@H]([C@](C)(O)[C@H]2CC[C@@]3(O)C4=CC(=O)[C@@H]5C[C@@H](O)[C@@H](O)C[C@]5(C)[C@H]4CC[C@]23C)OC(=O)C1C (stereo not given in full) [CAPITASTERONE] ?
## Result True

###

# target-or-test-system: ATP-dependent translocase ABCB1 (Homo sapiens)
# procedure-details: Inhibition of human ABCB1 pump expressed in mouse L5178 cells assessed as fluorescence activity ratio at 20 uM for 10 mins by flow cytometry relative to control
# Format: cell-based
# experimental-setup: l5178, 10 min
Give measured Ratio for each item. Keep answers brief.
Could you respond with only the numeric value?

Record CC(C)(O)CC[C@@H](O)[C@](C)(O)[C@H]1CC[C@@]2(O)C3=CC(=O)[C@@]4(O)C[C@@H](O)CC[C@]4(C)[C@H]3CC[C@]12C , field Ratio: 1.21

Record CC(=O)O[C@H]1C[C@@]2(C)[C@@H](C[C@H]1OC(C)=O)C(=O)C=C1[C@@H]2CC[C@]2(C)[C@@H]([C@@](C)(O)[C@@H](CCC(C)(C)O)OC(C)=O)CC[C@@]12O , field Ratio: 1.25

Record CC(C)(O)CCC[C@](C)(O)[C@H]1CC[C@@]2(O)C3=CC(=O)[C@@H]4C[C@@H](O)[C@@H](O)C[C@]4(C)[C@H]3CC[C@]12C , field Ratio: 0.67

Record CC(=O)O[C@H]1C[C@@]2(C)[C@@H](C[C@H]1OC(C)=O)C(=O)C=C1[C@@H]2CC[C@]2(C)[C@@H]([C@@](C)(O)[C@@H](CCC(C)(C)OC(C)=O)OC(C)=O)CC[C@@]12O , field Ratio: 8.55

Record CC(C)(O)CC[C@@H](O)[C@](C)(O)[C@H]1CC[C@@]2(O)C3=CC(=O)[C@]4(O)C[C@@H](O)[C@@H](O)C[C@]4(C)[C@H]3CC[C@]12C , field Ratio: 0.77

Record CC(C)(O)CC[C@H]1OC(C)(C)O[C@]1(C)[C@H]1CC[C@@]2(O)C3=CC(=O)[C@@H]4C[C@H]5OC(C)(C)O[C@H]5C[C@]4(C)[C@H]3CC[C@]12C , field Ratio: 19.13

Record CC[C@H](C[C@@H](O)[C@](C)(O)[C@H]1CC[C@@]2(O)C3=CC(=O)[C@@H]4C[C@@H](O)[C@@H](O)C[C@]4(C)[C@H]3CC[C@]12C)C(C)(C)O , field Ratio: 0.66

Record CC(O)(CO)CC[C@@H](O)[C@](C)(O)[C@H]1CC[C@@]2(O)C3=CC(=O)[C@]4(O)C[C@@H](O)[C@@H](O)C[C@]4(C)[C@H]3CC[C@]12C (stereo not given in full) , field Ratio: 1.32

Record CC(C)(O)CC[C@@H](O)[C@](C)(O)[C@H]1CC[C@@]2(O)C3=CC(=O)[C@@H]4C[C@@H](O)[C@@H](O)C[C@]4(C)C3=CC[C@]12C , field Ratio: 1.24

Record CC(C)CC[C@H](O)[C@](C)(O)[C@H]1CC[C@@]2(O)C3=CC(=O)[C@@H]4C[C@@H](O)[C@@H](O)C[C@]4(C)[C@H]3[C@H](O)C[C@]12C , field Ratio: 1.13

Record CC(=O)O[C@H]1C[C@]2(C)[C@H]3CC[C@]4(C)[C@@H]([C@@](C)(O)[C@@H](CCC(C)(C)O)OC(C)=O)CC[C@@]4(O)C3=CC(=O)[C@]2(O)C[C@H]1O , field Ratio: 0.84

Record CC1(C)CC[C@H]([C@](C)(O)[C@H]2CC[C@@]3(O)C4=CC(=O)[C@@H]5C[C@@H](O)[C@@H](O)C[C@]5(C)[C@H]4CC[C@]23C)O1 , field Ratio: 0.88

Record C[C@@H]1C(=O)O[C@H](C)[C@H]1C[C@@H](O)[C@](C)(O)[C@H]1CC[C@@]2(O)C3=CC(=O)[C@@H]4C[C@@H](O)[C@@H](O)C[C@]4(C)[C@H]3CC[C@]12C , field Ratio: 0.75

Record CC(=O)O[C@H](CCC(C)(C)O)[C@](C)(O)[C@H]1CC[C@@]2(O)C3=CC(=O)[C@@H]4C[C@@H](O)[C@@H](O)C[C@]4(C)[C@H]3CC[C@]12C , field Ratio: 1.54

Record CC(C)(O)CC[C@@H](O)[C@](C)(O)[C@H]1CC[C@@]2(O)C3=CC(=O)[C@@H]4C[C@H](O)[C@@H](O)C[C@]4(C)[C@H]3CC[C@]12C , field Ratio: 0.89

Record CC[C@H](C[C@H]1OC(C)(C)O[C@]1(C)[C@H]1CC[C@@]2(O)C3=CC(=O)[C@@H]4C[C@H]5OC(C)(C)O[C@H]5C[C@]4(C)[C@H]3CC[C@]12C)C(C)(C)O , field Ratio: 26.53

Record CC(C)(O)CC[C@@H](O)[C@](C)(O)[C@H]1CC[C@@]2(O)C3=CC(=O)[C@@H]4C[C@@H](O)[C@@H](O)C[C@]4(C)[C@H]3[C@H](O)C[C@]12C , field Ratio: 0.93

Record C=C(CCCC(C)(C)O)[C@H]1CC[C@@]2(O)C3=CC(=O)[C@@H]4C[C@@H](O)[C@@H](O)[C@@H](O)[C@]4(C)[C@H]3CC[C@]12C , field Ratio: 1.58

Record CC(C)(O)CC[C@@H](OC(=O)c1ccccc1)[C@](C)(O)[C@H]1CC[C@@]2(O)C3=CC(=O)[C@@H]4C[C@@H](O)[C@@H](O)C[C@]4(C)[C@H]3CC[C@]12C , field Ratio: 2.18

Record CC(=O)O[C@H]1C[C@]2(C)[C@H]3CC[C@]4(C)[C@@H]([C@@](C)(O)[C@@H](CCC(C)(C)O)OC(C)=O)CC[C@@]4(O)C3=CC(=O)[C@]2(O)C[C@H]1OC(C)=O , field Ratio: 47.95

###

# target-or-test-system: ATP-dependent translocase ABCB1 (Homo sapiens, UniProt P08183)
# procedure-details: Inhibition of human ABCB1 expressed in mouse L5178 cells assessed as 75% inhibition of cell proliferation at compound-doxorubicin ratio of 81.5:1 after 48 hrs by MTT assay
# Format: cell-based
# experimental-setup: l5178, 48 h
readout-name: fractional inhibitory concentration index (FICI)
Could you respond with only the numeric value?

Record CC(C)(O)CC[C@@H](O)[C@](C)(O)[C@H]1CC[C@@]2(O)C3=CC(=O)[C@@H]4C[C@@H](O)[C@@H](O)[C@@H](O)[C@]4(C)[C@H]3CC[C@]12C , field fractional inhibitory concentration index (FICI): 1.31

Record CC(=O)O[C@H](CCC(C)(C)O)[C@](C)(O)[C@H]1CC[C@@]2(O)C3=CC(=O)[C@@H]4C[C@@H](O)CC[C@]4(C)[C@H]3CC[C@]12C , field fractional inhibitory concentration index (FICI): 0.66

Record CC(C)(O)CC[C@@H](O)[C@](C)(O)[C@H]1CC[C@@]2(O)C3=CC(=O)[C@@H]4C[C@@H](O)[C@@H](O)C[C@]4(C)C3=CC[C@]12C , field fractional inhibitory concentration index (FICI): 3.35

Record CC(C)(O)CC[C@H]1OC(C)(C)O[C@]1(C)[C@H]1CC[C@@]2(O)C3=CC(=O)[C@]4(O)C[C@@H](O)[C@@H](O)C[C@]4(C)[C@H]3CC[C@]12C , field fractional inhibitory concentration index (FICI): 0.21

Record C[C@H]([C@H](O)CCC(C)(C)O)[C@H]1CC[C@@]2(O)C3=CC(=O)[C@@H]4C[C@@H](O)CC[C@]4(C)[C@H]3CC[C@]12C , field fractional inhibitory concentration index (FICI): 1.27

Record CC(C)CC[C@@H](O)[C@](C)(O)[C@H]1CC[C@@]2(O)C3=CC(=O)[C@@H]4C[C@@H](O)[C@@H](O)C[C@]4(C)[C@H]3CC[C@]12C , field fractional inhibitory concentration index (FICI): 0.78

Reference source for all entries: ChEMBL document CHEMBL2086273
